Tested on: 317291-083-R-J1-PDC complex spheroid growth;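 also: compound exposure lasted seven days after spheroids formed for three days; 100% = DMSO vehicle control wells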
Assay: Anticancer human tumor 317291-083-R-J1-PDC patient-derived soft tissue sarcoma cell line growth inhibition [Asc]
Settings: second compound 0.01 µM; first compound 0.316 µM; active compounds read low
Item-by-item account of viability, T/C
Lab book: enter the figure in %, no units written.

{"molecule": "C=C(F)C(=O)N1CCN(c2nc(OCC3CCCN3C)nc3c2CCN(c2cccc4cccc(Cl)c24)C3)CC1CC#N (configuration not stated) + CNC(C)C(=O)NC1CN(S(=O)(=O)c2cccc(S(=O)(=O)N3CCC4CCC(C(=O)NC(c5ccccc5)c5ccccc5)N4C(=O)C(NC(=O)C(C)NC)C3)c2)CCC2CCC(C(=O)NC(c3ccccc3)c3ccccc3)N2C1=O", "viability, T/C / %": 68.5}
{"molecule": "C=CC(=O)N1CCN(c2nc(=O)n(-c3c(C)ccnc3C(C)C)c3nc(-c4c(O)cccc4F)c(F)cc23)C(C)C1 (configuration not stated) + CNC(C)C(=O)NC1CN(S(=O)(=O)c2cccc(S(=O)(=O)N3CCC4CCC(C(=O)NC(c5ccccc5)c5ccccc5)N4C(=O)C(NC(=O)C(C)NC)C3)c2)CCC2CCC(C(=O)NC(c3ccccc3)c3ccccc3)N2C1=O", "viability, T/C / %": 83.3}
{"molecule": "C#Cc1c(F)ccc2cc(O)cc(-c3ncc4c(N5CC6CCC(C5)N6)nc(OCC56CCCN5CC(F)C6)nc4c3F)c12 (configuration not stated) + CNC(C)C(=O)NC1CN(S(=O)(=O)c2cccc(S(=O)(=O)N3CCC4CCC(C(=O)NC(c5ccccc5)c5ccccc5)N4C(=O)C(NC(=O)C(C)NC)C3)c2)CCC2CCC(C(=O)NC(c3ccccc3)c3ccccc3)N2C1=O", "viability, T/C / %": 57.8}

Query string: Observed viability, T/C on 317291-083-R-J1-PDC complex spheroid growth for COc1c(OCCCN2CCOCC2)ccc2c3n(c(=NC(=O)c4cnc(N)nc4)nc12)CCN3 + CNC(C)C(=O)NC1CN(S(=O)(=O)c2cccc(S(=O)(=O)N3CCC4CCC(C(=O)NC(c5ccccc5)c5ccccc5)N4C(=O)C(NC(=O)C(C)NC)C3)c2)CCC2CCC(C(=O)NC(c3ccccc3)c3ccccc3)N2C1=O , please.
Result string: 22.7

Query string: Which measured viability, T/C belongs to CCN1CCN(Cc2ccc(Nc3ncc(F)c(-c4cc(F)c5nc(C)n(C(C)C)c5c4)n3)nc2)CC1 + CNC(C)C(=O)NC1CN(S(=O)(=O)c2cccc(S(=O)(=O)N3CCC4CCC(C(=O)NC(c5ccccc5)c5ccccc5)N4C(=O)C(NC(=O)C(C)NC)C3)c2)CCC2CCC(C(=O)NC(c3ccccc3)c3ccccc3)N2C1=O , tested on 317291-083-R-J1-PDC complex spheroid growth?;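 also: compound exposure lasted seven days after spheroids formed for three days; 100% = DMSO vehicle control wells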
Result string: 48.8

Query string: Missing value: viability, T/C, 317291-083-R-J1-PDC complex spheroid growth, entry O=C(c1cc(Cc2n[nH]c(=O)c3ccccc23)ccc1F)N1CCN(C(=O)C2CC2)CC1 + CNC(C)C(=O)NC1CN(S(=O)(=O)c2cccc(S(=O)(=O)N3CCC4CCC(C(=O)NC(c5ccccc5)c5ccccc5)N4C(=O)C(NC(=O)C(C)NC)C3)c2)CCC2CCC(C(=O)NC(c3ccccc3)c3ccccc3)N2C1=O . Fill in?
Result string: 55.6

Query string: Form entry - test system: 317291-083-R-J1-PDC complex spheroid growth; read-out: viability, T/C; molecule: O=C(c1ccc(F)c(F)c1Nc1ccc(I)cc1F)N1CC(O)([C@@H]2CCCCN2)C1 + CNC(C)C(=O)NC1CN(S(=O)(=O)c2cccc(S(=O)(=O)N3CCC4CCC(C(=O)NC(c5ccccc5)c5ccccc5)N4C(=O)C(NC(=O)C(C)NC)C3)c2)CCC2CCC(C(=O)NC(c3ccccc3)c3ccccc3)N2C1=O;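 also: compound exposure lasted seven days after spheroids formed for three days; 100% = DMSO vehicle control wells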
Result string: 39.8

Source listed as PubChem BioAssay AID1963427.
